B1: glmS ribozyme (parent)
chain: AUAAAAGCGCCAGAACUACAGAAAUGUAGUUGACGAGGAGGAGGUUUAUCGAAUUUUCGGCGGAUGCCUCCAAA

- Variants of: B1
- TEST_DETAILS: self-cleavage kobs at 160 uM GlcN6P; higher = faster cleavage; RNA array
- CONDITION_PARAMETERS: with glucosamine-6-phosphate
Variants at the floor of the assay were thinned out.

VARIANT_SPEC | self-cleavage kobs at 160 uM GlcN6P
G9A A53C | < 1e-05 s⁻¹
G32U C58U | 6.06e-05 s⁻¹
U30C G43C | < 1e-05 s⁻¹
A12G G41U G51C C71A | < 1e-05 s⁻¹
G38U A42C | < 1e-05 s⁻¹
C16A A53G | 0.000134 s⁻¹
C16A G38C C68U | < 1e-05 s⁻¹
C8U A39C C50G C61G | < 1e-05 s⁻¹
U45G C61G | < 1e-05 s⁻¹
G66U C68A | 3.61e-05 s⁻¹
A14U U45A | 0.00102 s⁻¹
C16G U46G | 5.87e-05 s⁻¹
A6G U57A G60A C71G | < 1e-05 s⁻¹
C11A G41U | < 1e-05 s⁻¹
C11A G40A | < 1e-05 s⁻¹
A14C G63C U69G | 7.07e-05 s⁻¹
A6G G62C | < 1e-05 s⁻¹
A15U U46C | 2.98e-05 s⁻¹
C50G C71G | 0.000249 s⁻¹
C8U U30C | < 1e-05 s⁻¹
A39U A53G | 0.00141 s⁻¹
G40U U49C U65G | < 1e-05 s⁻¹
C8A A36C | < 1e-05 s⁻¹
U49G G60C | < 1e-05 s⁻¹
G37A C71A | 5.16e-05 s⁻¹
G7C G59C | < 1e-05 s⁻¹
C34G U47G C68G | 0.000631 s⁻¹
A12U U31C U47G | 8.69e-05 s⁻¹
G38U A64C | < 1e-05 s⁻¹
G43C U46C | < 1e-05 s⁻¹
G29A G35A | < 1e-05 s⁻¹
A33C C58U | < 1e-05 s⁻¹
A36U C61G C70G | 6.28e-05 s⁻¹
C10A A52U C68A | 7.21e-05 s⁻¹
C8A A33U | < 1e-05 s⁻¹
G35U U69A | < 1e-05 s⁻¹
A36C U47G U69G | 0.000151 s⁻¹
U31C G60U | < 1e-05 s⁻¹
G29U A53G C67G | 6.91e-05 s⁻¹
U45C U47C G62U C68U | < 1e-05 s⁻¹
G9A G35U | < 1e-05 s⁻¹
A12U G62C | < 1e-05 s⁻¹
A52C | < 1e-05 s⁻¹
C10U G51C | < 1e-05 s⁻¹
A12C A15G | 0.000883 s⁻¹
G40U A52C | < 1e-05 s⁻¹
